B1: LCOR (parent)
chain: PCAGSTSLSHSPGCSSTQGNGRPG

variants of: B1; assay: protein stability index of a GFP-peptide fusion (GPS, HEK-293T) (PSI 1-6); higher = more stable; conditions: c terminus: a fixed tail appended;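 note: lentivirally expressed fusions sorted by FACS into six bins by GFP to DsRed ratio, PSI derived from sequencing read proportions per bin multiplied by bin number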
VALUE KIND: protein stability index

>>> df
    variant_string               value_kind   val
 0            R22K  protein stability index  4.23
 1            P23H  protein stability index  3.88
 2             P1F  protein stability index  3.04
 3            G21P  protein stability index  2.53
 4            H10P  protein stability index  3.37
 5            G19Q  protein stability index  3.64
 6            R22T  protein stability index  3.46
 7            N20T  protein stability index  2.35
 8             S5T  protein stability index  1.75
 9            S11R  protein stability index  2.53
10             G4S  protein stability index  3.56
